target: Escherichia coli DAP-epimerase (E.C. 5.1.1.7) (Escherichia coli, UniProt P0A6K1); construct: endogenous in cells; host or cells: E. coli PR7; Endogenous enzyme purified by ammonium sulfate 30-45%, DE52 and Matrix green A dye-ligand column; assay: Inhibition of Escherichia coli DAP-epimerase (E.C. 5.1.1.7); type: biochemical, Escherichia coli (PR7)
Sequence (P0A6K1 whole entry): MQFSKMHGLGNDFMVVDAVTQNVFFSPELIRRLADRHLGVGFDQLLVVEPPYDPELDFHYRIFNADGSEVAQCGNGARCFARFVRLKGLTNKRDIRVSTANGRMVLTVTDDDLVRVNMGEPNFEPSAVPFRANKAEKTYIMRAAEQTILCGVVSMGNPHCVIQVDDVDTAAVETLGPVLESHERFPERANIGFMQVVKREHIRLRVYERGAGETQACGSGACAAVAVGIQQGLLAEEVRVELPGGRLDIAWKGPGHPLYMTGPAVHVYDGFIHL
reportedMetric: IC50 (nM)
Answers are plain numbers, in nM.

Could you tell me which IC50 is on file for NC(CCC(F)C(N)C(=O)O)C(=O)O (stereo not shown) ?
1350

====

molecular target: UniProt A0A0G3SSC4
Sequence (A0A0G3SSC4 1-274): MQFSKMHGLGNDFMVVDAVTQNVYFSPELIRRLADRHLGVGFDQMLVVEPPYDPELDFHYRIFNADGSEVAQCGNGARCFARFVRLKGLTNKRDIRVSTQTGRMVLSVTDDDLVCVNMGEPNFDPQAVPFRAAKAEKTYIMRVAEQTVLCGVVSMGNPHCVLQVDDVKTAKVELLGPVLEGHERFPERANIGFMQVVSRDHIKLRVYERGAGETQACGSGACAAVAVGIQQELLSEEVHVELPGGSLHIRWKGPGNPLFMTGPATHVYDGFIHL
reportedMetric: Ki (µM)
Numbers only, in µM.

Could you tell me which Ki is on file for NC(CCC(F)C(N)C(=O)O)C(=O)O (stereo not shown) ?
1
